The following sequences are shown together with reported folding stability dG unfold values.
PROCEDURE TEXT: folding stability dG unfold (combined trypsin and chymotrypsin); higher = more stable

| CHAIN SEQUENCE | folding stability dG unfold |
| --- | --- |
| SAGGSAGGSAKKPKKFKITKISTVKNKNGKTYYKLVIEDEKTKKKYVFVFPKNKEEILKALSAGGSAGGSAG [r3_57_TrROS_Hall] | 2.45 kcal/mol |
| SAGGSAGGSAGGKKIRIVVPKENLEKIEELAKKLGPDVKIVKVEYFKETDYVVVEVEVKSAGGSAGGSAGGS [r10_23_TrROS_Hall] | 2.11 kcal/mol |
| SAGGSAGGKIRILEEEEDPANGERRLMVMVHNPKGKPHQYPVPLDDADEILEHLPPGMPVEIYPSAGGSAGG [r6_113_TrROS] | -0.514 kcal/mol |

Request the reported folding stability dG unfold associated with SAMKITIEVIKLPDGYYVVRITVYDKNGEKVEERELVFSSLEDLLAALKELFPDQKVTVEIRKVTKEELSAG [r14_964_TrROS_Hall]
3.77 kcal/mol

What value of measured folding stability dG unfold is listed for SAGGSAMIELEIKLPKEEAEKIAEELAKKLAEELGLEVKVVDVEIEYDPETDEVTIRVKIEVEPEPSAGGSA [r15_70_TrROS_Hall] ?
2.48 kcal/mol

// folding stability dG unfold lookup, key: SAGGMKAKATFKIPKTFVDPKNNSPKISESEITIEREFKSEEEAKEFVEKIKEELPPELTELVSLELESAGG [r19_209_JUSTAS]
< -1 kcal/mol

Look up folding stability dG unfold: SAGGNWRIVEIPIKFPPGQDLTTIAKEIAKELLPPGEDVSINVEQRPNYMRIYIFYPEDGKPLWEIEISAGG [r13_724_TrROS]
2.58 kcal/mol
